Tested on: Escherichia coli TOP10
Assay: shrunken log2 fold change of peptide-encoding DNA abundance (4.5 h post-induction vs induction); higher = less antimicrobial activity (less host growth inhibition)
Conditions: time post-induction: 4.5 h; library: site-saturation at positions 5, 18, 19, 20
Measured metric: shrunken log2 fold change
// return a plain number; no unit text

Example cases with answers are listed next.
1) RRIRNRPPRLPRPRPRPTWTPRP ... 0.201
2) RRIRTRPPRLPRPRPRPLKRPRP ... -0.236
3) RRIRPRPPRLPRPRPRPHASPRP ... -0.192
4) RRIRMRPPRLPRPRPRPWGQPRP ... -0.0394

q: Look up shrunken log2 fold change: RRIRNRPPRLPRPRPRPPAMPRP
a: 0.124

q: Look up shrunken log2 fold change: RRIRIRPPRLPRPRPRPCHHPRP
a: 0.0314

q: Look up shrunken log2 fold change: RRIRMRPPRLPRPRPRPFWKPRP
a: 0.072

q: Look up shrunken log2 fold change: RRIRVRPPRLPRPRPRPIDAPRP
a: -0.206

q: Look up shrunken log2 fold change: RRIRDRPPRLPRPRPRPVVEPRP
a: 0.321

q: Look up shrunken log2 fold change: RRIRDRPPRLPRPRPRPIPFPRP
a: -0.306

q: Look up shrunken log2 fold change: RRIRDRPPRLPRPRPRPTSQPRP
a: 0.495

q: Look up shrunken log2 fold change: RRIRTRPPRLPRPRPRPLWRPRP
a: 0.00366

q: Look up shrunken log2 fold change: RRIRSRPPRLPRPRPRPYHQPRP
a: -0.203

q: Look up shrunken log2 fold change: RRIRARPPRLPRPRPRPGYLPRP
a: 0.0801

q: Look up shrunken log2 fold change: RRIRYRPPRLPRPRPRPSSCPRP
a: -0.101

q: Look up shrunken log2 fold change: RRIRDRPPRLPRPRPRPQSIPRP
a: 0.00839

q: Look up shrunken log2 fold change: RRIRLRPPRLPRPRPRPMYPPRP
a: -0.0826

q: Look up shrunken log2 fold change: RRIRKRPPRLPRPRPRPDPQPRP
a: 0.729

q: Look up shrunken log2 fold change: RRIRWRPPRLPRPRPRPQREPRP
a: 0.0297

q: Look up shrunken log2 fold change: RRIRVRPPRLPRPRPRPTQKPRP
a: 0.837

q: Look up shrunken log2 fold change: RRIRKRPPRLPRPRPRPDWQPRP
a: -0.0216

q: Look up shrunken log2 fold change: RRIRIRPPRLPRPRPRPVRSPRP
a: 0.373

q: Look up shrunken log2 fold change: RRIRFRPPRLPRPRPRPWQRPRP
a: -0.0586

q: Look up shrunken log2 fold change: RRIRDRPPRLPRPRPRPMMNPRP
a: -0.00862

q: Look up shrunken log2 fold change: RRIRIRPPRLPRPRPRPQKAPRP
a: 0.0173

----------
System: Escherichia coli TOP10
Assay: shrunken log2 fold change of peptide-encoding DNA abundance (4.5 h post-induction vs induction); higher = less antimicrobial activity (less host growth inhibition)
Conditions: time post-induction: 4.5 h; library: site-saturation at positions 5, 18, 19, 20
Entries get a class label from measured shrunken log2 fold change. See ranges: lower band (below -0.1), central band (-0.1 to below 0.1), upper band (0.1 or more)

Example entries and their recorded answers appear below.
1. RRIRRRPPRLPRPRPRPETHPRP ... upper band
2. RRIRIRPPRLPRPRPRPICMPRP ... lower band
3. RRIRHRPPRLPRPRPRPETQPRP ... lower band
4. RRIRFRPPRLPRPRPRPCEPPRP ... central band
5. RRIRIRPPRLPRPRPRPMRLPRP ... central band
6. RRIRMRPPRLPRPRPRPKATPRP ... central band

q: Category lookup for the sequence RRIRFRPPRLPRPRPRPRDMPRP
a: lower band

q: Category lookup for the sequence RRIRPRPPRLPRPRPRPIPYPRP
a: lower band

q: Category lookup for the sequence RRIRQRPPRLPRPRPRPGMWPRP
a: upper band

q: Category lookup for the sequence RRIRMRPPRLPRPRPRPWSFPRP
a: lower band

q: Category lookup for the sequence RRIRARPPRLPRPRPRPSAFPRP
a: upper band

----------
Test system: Escherichia coli TOP10
Assay: shrunken log2 fold change of peptide-encoding DNA abundance (4.5 h post-induction vs induction); higher = less antimicrobial activity (less host growth inhibition)
Settings: time post-induction: 4.5 h; library: site-saturation at positions 5, 18, 19, 20
Measured metric: shrunken log2 fold change
// return a plain number; no unit text

q: Look up shrunken log2 fold change: RRIRVRPPRLPRPRPRPPCHPRP
a: -0.451

q: Look up shrunken log2 fold change: RRIRIRPPRLPRPRPRPMVHPRP
a: -0.0468

q: Look up shrunken log2 fold change: RRIRFRPPRLPRPRPRPCLFPRP
a: -0.264

q: Look up shrunken log2 fold change: RRIRCRPPRLPRPRPRPYPMPRP
a: -0.424

q: Look up shrunken log2 fold change: RRIRFRPPRLPRPRPRPIAWPRP
a: -0.0725

q: Look up shrunken log2 fold change: RRIRSRPPRLPRPRPRPAGQPRP
a: -0.0166

q: Look up shrunken log2 fold change: RRIRVRPPRLPRPRPRPTVSPRP
a: -0.131

q: Look up shrunken log2 fold change: RRIRNRPPRLPRPRPRPTKNPRP
a: -0.0348

q: Look up shrunken log2 fold change: RRIRNRPPRLPRPRPRPQFLPRP
a: 0.106

q: Look up shrunken log2 fold change: RRIRMRPPRLPRPRPRPMMQPRP
a: -0.00112

q: Look up shrunken log2 fold change: RRIRERPPRLPRPRPRPMLFPRP
a: -0.0835

q: Look up shrunken log2 fold change: RRIRSRPPRLPRPRPRPHYRPRP
a: 0.0349

q: Look up shrunken log2 fold change: RRIRKRPPRLPRPRPRPHMCPRP
a: -0.066

q: Look up shrunken log2 fold change: RRIRIRPPRLPRPRPRPKCNPRP
a: -0.701

q: Look up shrunken log2 fold change: RRIRNRPPRLPRPRPRPLPVPRP
a: 0.437

q: Look up shrunken log2 fold change: RRIRYRPPRLPRPRPRPTAAPRP
a: 0.111

----------
System: Escherichia coli TOP10
Assay: shrunken log2 fold change of peptide-encoding DNA abundance (4.5 h post-induction vs induction); higher = less antimicrobial activity (less host growth inhibition)
Conditions: time post-induction: 4.5 h; library: site-saturation at positions 5, 18, 19, 20
Rule: shrunken log2 fold change of -0.02 or more gives t; anything lower gives f.

Example entries and their recorded answers appear below.
1) RRIRFRPPRLPRPRPRPDGGPRP ... f
2) RRIRSRPPRLPRPRPRPGWEPRP ... f
3) RRIRCRPPRLPRPRPRPATIPRP ... f
4) RRIRLRPPRLPRPRPRPFDIPRP ... t
5) RRIRTRPPRLPRPRPRPDQFPRP ... t

Note: attention shifts to another entry.
q: Assess whether reported shrunken log2 fold change for RRIRHRPPRLPRPRPRPAYSPRP sits at -0.02 or higher.
a: t

----------
Item-by-item account of shrunken log2 fold change
Tested on: Escherichia coli TOP10
Experiment: shrunken log2 fold change of peptide-encoding DNA abundance (4.5 h post-induction vs induction); higher = less antimicrobial activity (less host growth inhibition)
Settings: time post-induction: 4.5 h; library: site-saturation at positions 5, 18, 19, 20
// return a plain number; no unit text

Example cases with answers are listed next.
1. RRIRVRPPRLPRPRPRPGGIPRP ... 0.143
2. RRIRMRPPRLPRPRPRPYSVPRP ... 0.0409
3. RRIRVRPPRLPRPRPRPGQHPRP ... 0.0795

q: Look up shrunken log2 fold change: RRIRMRPPRLPRPRPRPCCMPRP
a: -0.167

q: Look up shrunken log2 fold change: RRIRCRPPRLPRPRPRPWPCPRP
a: 1.63

q: Look up shrunken log2 fold change: RRIRWRPPRLPRPRPRPTQLPRP
a: 0.0699

q: Look up shrunken log2 fold change: RRIRGRPPRLPRPRPRPNICPRP
a: 0.168

----------
Test system: Escherichia coli TOP10;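 note: peptides expressed intracellularly from a pBAD plasmid library in pooled LB shake-flask culture, induced with 0.3% L-arabinose, DNA abundance read by NGS, three biological replicates, DESeq2 with apeglm shrinkage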
Experiment: shrunken log2 fold change of peptide-encoding DNA abundance (4.5 h post-induction vs induction); higher = less antimicrobial activity (less host growth inhibition)
Conditions: time post-induction: 4.5 h; library: site-saturation at positions 5, 18, 19, 20
Item-by-item account of shrunken log2 fold change
// return a plain number; no unit text

Example cases with answers are listed next.
1. RRIRYRPPRLPRPRPRPEGSPRP ... -0.0779
2. RRIRHRPPRLPRPRPRPATFPRP ... -0.662
3. RRIRERPPRLPRPRPRPASIPRP ... -0.327
4. RRIRKRPPRLPRPRPRPAWQPRP ... 0.714
5. RRIRHRPPRLPRPRPRPYLSPRP ... -0.221
6. RRIRVRPPRLPRPRPRPIHHPRP ... -0.723
7. RRIRCRPPRLPRPRPRPLTYPRP ... -0.19
8. RRIRSRPPRLPRPRPRPKQGPRP ... 0.245

q: Look up shrunken log2 fold change: RRIRVRPPRLPRPRPRPIWHPRP
a: -0.164

q: Look up shrunken log2 fold change: RRIRVRPPRLPRPRPRPWCEPRP
a: -0.293

q: Look up shrunken log2 fold change: RRIRFRPPRLPRPRPRPQWCPRP
a: -0.0514

q: Look up shrunken log2 fold change: RRIRYRPPRLPRPRPRPFKYPRP
a: -0.689

q: Look up shrunken log2 fold change: RRIRIRPPRLPRPRPRPEFTPRP
a: -0.1

q: Look up shrunken log2 fold change: RRIRNRPPRLPRPRPRPQFTPRP
a: -0.259

q: Look up shrunken log2 fold change: RRIRSRPPRLPRPRPRPNDPPRP
a: -0.619
